Entry source: PubChem BioAssay

# run.description: basal HepG2 mitochondrial membrane potential changes, profiling panel, cell-based, JC-1 fluorescence, 24 h, 100 nL compound (AID 1167); further: test concentration not given here
# condition.info: higher = more signal
Please go through the items and note down their z-score.
Please reply with the number alone, leaving off any unit.

Exercise: For the compound shown here, CCCCC(O)C1C=CC2C(=O)N(c3ccccc3)C(=O)C2N1Nc1ccccc1F (centres undefined) , give the reported z-score.
Solution: -1.75

Exercise: And the next one, `C[C@]1(C(=O)NC2CC2)c2ccccc2C(=O)N(Cc2cc(C(F)(F)F)cc(C(F)(F)F)c2)[C@H]1c1ccc(CO)cc1` ?
Solution: 2.04

Exercise: And then `[N-]=[N+]=NCc1ccccc1C[C@]1(C(=O)O)N=C(c2ccc(OCCCO)cc2)O[C@H]1c1ccccc1N=[N+]=[N-]` , what is it?
Solution: -1.93

Exercise: Entry `COC(=O)[C@@]1(Cc2ccccc2)[C@H]2c3cc(C(=O)N(C)C)n(CCSCCO)c3C[C@H]2CN1C(=O)c1ccccc1` please
Solution: -1.37
